Origin of measurements: PubChem BioAssay (NCI)

# Tested on: COLO 205 colon
# Protocol notes: NCI tumour cell line growth inhibition, 48 h; in the data active = GI50 below about 0.43 µM; inactive = the rest
One label from this list, please: yes (active), no (inactive)

Ask | Recorded test outcome, item COc1ccc(SC2c3cc(OC)c(OC)cc3Oc3nc(N)c(C#N)c(N)c32)cc1 (stereo unspecified)
Reply | no

Ask | Recorded test outcome, item "COc1ccc(-c2ccc3c(NC(=O)C4CC4)n[nH]c3n2)cc1"
Reply | no

Ask | Recorded test outcome, item CC(=O)OCC1OC(OC2C(COC(C)=O)OC(OCCC[S-])C(OC(C)=O)C2OC(C)=O)C(OC(C)=O)C(OC(C)=O)C1OC(C)=O.[Au+].c1ccc(CN2[CH-]N(Cc3ccccc3)C(c3ccccc3)=C2c2ccccc2)cc1 (stereo unspecified)
Reply | no

Ask | Recorded test outcome, item "C/C1=C\[C@H](C)C[C@H](C)OC(=O)C[C@H](c2ccc(O)cc2)NC(=O)[C@@H](Cc2c(Br)[nH]c3ccccc23)N(C)C(=O)[C@H](C)NC(=O)[C@@H](C)C1"
Reply | yes

Ask | Recorded test outcome, item C=C1CCC2C3(C)COC(c4ccc(NC(C)=O)cc4)OC3CCC2(C)C1C/C=C1/C(=O)OCC1O (stereo unspecified)
Reply | no

Ask | Recorded test outcome, item C=CN1C(=O)OC(c2ccccc2)C1c1ccccc1 (stereo unspecified)
Reply | no

Ask | Recorded test outcome, item "COc1ccc(N2CCN(C(=O)c3ccccc3Nc3ccnc(C(F)(F)F)c3)CC2)cc1"
Reply | no

Ask | Recorded test outcome, item "CC[C@@]1(O)C(=O)NCc2c1cc1n(c2=O)Cc2cc3ccccc3nc2-1"
Reply | no

Ask | Recorded test outcome, item "CCN(CC)CCN1C(=O)c2c(c(C)c3c(oc4cc(O)ccc43)c2C)C1=O"
Reply | no

Ask | Recorded test outcome, item "O=C1NC(=O)/C(=C/C=C/c2ccccc2)S1"
Reply | no

Ask | Recorded test outcome, item "O=C(NCc1cccnc1)/C(=C\c1ccc(Br)cc1)S(=O)(=O)c1ccccc1"
Reply | no

###

# System: HOP-62 NSCLC
# Protocol notes: NCI tumour cell line growth inhibition, 48 h; in the data active means GI50 below about 0.43 µM; inactive means the rest
One label from this list, please: T = active, F = inactive

Ask | Recorded test outcome, item "COc1ccc(/C=C/c2c(C(=O)/C=C/c3ccc(Cl)cc3)c(C)nc3ccccc23)cc1"
Reply | F

Ask | Recorded test outcome, item "Cn1nc(C(F)(F)F)c(-c2ccc(Cl)c(C(F)(F)F)c2)c1-c1ccc(OCc2ccc(Cl)cc2)cc1O"
Reply | F

Ask | Recorded test outcome, item "C=C(CN1CCN(c2ccccc2OC)CC1)c1ccc(C(=O)Nc2ccccc2N)cc1"
Reply | F

Ask | Recorded test outcome, item "CC1(C)N=C(N)N=C(N)N1c1cccc(C#N)c1"
Reply | F

Ask | Recorded test outcome, item "Cn1c2ccccc2c(=Nc2ccccc2)c2c3ccccc3[nH]c21"
Reply | F

Ask | Recorded test outcome, item "Cl.[Pt].[c-]1ccccc1-c1ccccn1.c1ccc(P(c2ccccc2)C([PH+](c2ccccc2)c2ccccc2)[PH+](c2ccccc2)c2ccccc2)cc1"
Reply | F

Ask | Recorded test outcome, item C=C(C=O)C1CC(=O)C(C(=O)OC)[C@@H]2O[C@@](C)(CC2=O)C[C@@H]2OC(=O)[C@]3(O[C@@H]23)[C@@H](C(=O)OC)C1 (stereo partly drawn)
Reply | F

Ask | Recorded test outcome, item C=C1CCC2C3(C)COC(c4ccc(NC(C)=O)cc4)OC3CCC2(C)C1C/C=C1/C(=O)OCC1O (stereo not drawn)
Reply | F

Ask | Recorded test outcome, item C=CN1C(=O)OC(c2ccccc2)C1c1ccccc1 (stereo not drawn)
Reply | F

Ask | Recorded test outcome, item "Cc1ccc2c(c1)C(=O)c1c-2n(CCCN)c(=O)c2cc([N+](=O)[O-])ccc12"
Reply | T

Ask | Recorded test outcome, item COc1ccc2c(c1)CCC1C2CC[C@@]2(C)C1CC[C@@]2(O)CNC(=O)/C=C/c1ccc(O)c(OC)c1 (stereo partly drawn)
Reply | F

Ask | Recorded test outcome, item "CC1(C)CCC[C@]23C(=O)O[C@](O)(C(=O)C4=C[C@@](C)(/C=C/CCCc5ccc6ccc7cccc8ccc5c6c78)CC[C@@]42O)[C@@H]13"
Reply | T

Ask | Recorded test outcome, item "O=C(/C=C/c1ccc(C(F)(F)F)cc1)c1ccc(Nc2nc(NCCO)nc(NCCO)n2)cc1"
Reply | F

Ask | Recorded test outcome, item "COc1ccc(-c2oc(=O)ccc2C#Cc2cc(OC)c(OC)c(OC)c2)cc1O"
Reply | F

Ask | Recorded test outcome, item "COc1ccc(-c2ccc(/C=C/C(=O)NO)cc2)cc1"
Reply | F

Ask | Recorded test outcome, item COc1cc(C)c(C(=O)O[C@H]2[C@H](O[C@H]3[C@@H](O)COC(O[C@H]4C[C@H]5[C@@H]6CC=C7C[C@@H](O)CC[C@]7(C)[C@H]6CC[C@]5(C)[C@H]4[C@H](C)C(=O)CCC(C)C)[C@@H]3OC(C)=O)OC[C@@H](O)[C@@H]2O)c(C)c1 (stereo partly drawn)
Reply | T

Ask | Recorded test outcome, item CN1/C(=C\C(I)C(I)C2=[N+](C)c3ccccc3C2(C)C)C(C)(C)c2ccccc21 (stereo not drawn)
Reply | T

Ask | Recorded test outcome, item "Nc1ncnc2c1c(C(F)(F)F)cn2[C@@H]1O[C@H](CO)[C@@H](O)[C@H]1O"
Reply | T
